Data provenance: patent US11364248B2

Listed here: items and their measured pIC50.
MEASURED ON: Mcl-1/Bim interaction (Homo sapiens (Human), UniProt Q07820)
Sequence (Q07820 171-327): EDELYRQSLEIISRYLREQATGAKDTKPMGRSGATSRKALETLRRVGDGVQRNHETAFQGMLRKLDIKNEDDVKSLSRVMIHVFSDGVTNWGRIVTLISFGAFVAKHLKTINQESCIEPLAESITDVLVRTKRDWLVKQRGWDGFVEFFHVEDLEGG
ASSAY METHOD TEXT: Cell Free Mcl-1: Bim Affinity Assay (Mcl-1 HTRF)
PARTICULARS: TR-FRET, recombinant human Mcl-1(171-327), biotin-Bim(51-76); read-out: Mel-1 HTRF IC50
Method: Cell Free Mcl-1: Bim Affinity Assay (Mcl-1 HTRF) The inhibition of the Mcl-1/Bim interaction was measured using a time-resolved fluorescence resonance energy transfer (TR-FRET) assay. […] The reaction plates were further incubated overnight and then were read on an Envision® multimode reader (PerkinElmer). Fluorescence signals were measured at 620 nm (40-nm bandwidth) and 665 nm (7.5-nm bandwidth) with a 60 μs delay after excitation at 320 nm (75-nm bandwidth). […]
pIC50: −log10 of the molar value.
PROPERTY NAME: pIC50

{"COMPOUND": "CC[C@@H]1CCCC[C@H]([C@H]2OC[C@@H](N(C)C)CO2)C2CC[C@H]2CN2C[C@@]3(CCCc4cc(Cl)ccc43)COc3ccc(cc32)C(=O)NS1(=O)=O (stereo in doubt) [Example 74]", "ASSAY VALUE": 9.71}
{"COMPOUND": "C[C@@H]1[C@@H](C)CCC[C@H]([C@H]2OC[C@H](N)CO2)[C@@H]2CC[C@H]2CN2C[C@@]3(CCCc4cc(Cl)ccc43)COc3ccc(cc32)C(=O)NS1(=O)=O (relative stereo) [Example 18]", "ASSAY VALUE": 8.86}
{"COMPOUND": "C[C@@H]1[C@@H](C)CCC[C@@H]([C@H]2OC[C@@H](N3CC(Cl)C3)CO2)[C@@H]2CC[C@H]2CN2C[C@@]3(CCCc4cc(Cl)ccc43)COc3ccc(cc32)C(=O)NS1(=O)=O (single isomer, unassigned) [Example 56]", "ASSAY VALUE": 8.70}
{"COMPOUND": "CN[C@H]1CO[C@H]([C@H]2CCC[C@H](C)[C@@H](C)S(=O)(=O)NC(=O)c3ccc4c(c3)N(C[C@@H]3CC[C@H]32)C[C@@]2(CCCc3cc(Cl)ccc32)CO4)OC1 [Example 49]", "ASSAY VALUE": 8.82}
{"COMPOUND": "COCCN(C)[C@H]1CO[C@@H]([C@H]2CCC[C@H](C)[C@@H](C)S(=O)(=O)NC(=O)c3ccc4c(c3)N(C[C@@H]3CC[C@H]32)C[C@@]2(CCCc3cc(Cl)ccc32)CO4)OC1 [Example 72]", "ASSAY VALUE": 9.25}
